Experiment: Quantitative High-Throughput drug screen in 47 multiple myeloma cell lines against the NCATS MIPE library collection: FR4_PLB cell viability assay (AID 1918924; further: nearly all actives have a fitted effect of over 35% in size)
Conditions: FR4_PLB myeloma cells viability, CellTiter-Glo ATP, 48 h; series mostly up to 45.8 µM
Inconclusive results are not listed. The source made the active and inactive calls. The call rests on the fitted dose curve; in most records, active means well fitted cell-killing curve with a large enough effect; inconclusive means small, poorly fitted or top-dose-only effect, or effect the other way; inactive means no such curve, though single readings can be large or run the other way.
Outcomes: TRUE (active), FALSE (inactive)

>  <molecular-string>
CCOC(=O)N1CCN([N+]([O-])=NOc2ccc([N+](=O)[O-])cc2C#N)CC1

>  <label-value>
TRUE

$$$$
>  <molecular-string>
O=C1NC(=O)[C@@H](c2cn3c4c(cccc24)CCC3)[C@H]1c1c[nH]c2ccccc12

>  <label-value>
TRUE

$$$$
>  <molecular-string>
C[C@H]1[C@@H](OC(=O)CCC(=O)O)O[C@@H]2O[C@@]3(C)CC[C@@H]4[C@H](C)CC[C@@H]1[C@@]24OO3

>  <label-value>
TRUE

$$$$
>  <molecular-string>
Cc1cnn(C)c1C(=O)Nc1cc(Nc2ccc3c(C=Cc4ccccn4)n[nH]c3c2)ccc1F

>  <label-value>
TRUE

$$$$
>  <molecular-string>
N#Cc1cc(NC(=O)Nc2nnc(-c3ccncc3)s2)ccc1-c1cn[nH]c1

>  <label-value>
FALSE

$$$$

Entry source: PubChem BioAssay (NCATS)
